Target: T1, human IL6R (human, UniProt P08887 20-358, limits assumed)
T1 construct: Antigen of the Biacore experiments
T1 sequence (looked up): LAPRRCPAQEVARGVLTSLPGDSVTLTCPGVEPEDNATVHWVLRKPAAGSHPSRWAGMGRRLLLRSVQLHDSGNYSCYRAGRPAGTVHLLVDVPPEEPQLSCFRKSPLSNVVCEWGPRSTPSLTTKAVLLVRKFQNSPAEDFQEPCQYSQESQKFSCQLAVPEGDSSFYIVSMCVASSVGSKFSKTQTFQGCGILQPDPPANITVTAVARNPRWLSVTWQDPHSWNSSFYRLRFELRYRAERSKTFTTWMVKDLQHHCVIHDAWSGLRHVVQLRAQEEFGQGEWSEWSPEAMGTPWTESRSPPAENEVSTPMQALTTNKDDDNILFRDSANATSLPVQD
Assay: SPR (Biacore), periplasmic extract
quantityName: koff (s⁻¹)
Number in s⁻¹, nothing else.

QUERY: Please report the recorded koff for 32C9PMP2_E2 (VHH, name in Kabat numbering, Humanized 32C9 variant) VHH: EVQLVESGGGLVQPGGSLRLSCAASGFTFSDYDIGWFRQAPGKELEGVSGISSSDGNTYYADSVKGRFTISSDNAKNTLYLQMNSLKAEDTAVYYCAAEPPDSSWYLDGSPEFFKYWGQGTQVTVSS .
RESULT: 0.00121

QUERY: Please report the recorded koff for 32C9PMP2_F3 (VHH, name in Kabat numbering, Humanized 32C9 variant) VHH: EVQLVESGGGLVQAGGSLRLSCAASGFTFDDYDIGWVRQAPGKGREGVSGISSSDGNTYYADSVKGRFTISSDNAKNTVYLQMNSLKAEDTAVYYCAAEPPDSSWYLDGSPEFFKYWGQGTLVTVSS .
RESULT: 0.000804

QUERY: Please report the recorded koff for 32C9PMP2_G12 (VHH, name in Kabat numbering, Humanized 32C9 variant) VHH: EVQLVESGGGLVQAGGSLRLSCAASGFTFSDYDIGWFRQAPGKGREGVSGISSSDGNTYYADSVKGRFTISRDNAKNTLYLQMNSLKAEDTAVYYCAAEPPDSSWYLDGSPEFFKYWGQGTQVTVSS .
RESULT: 0.000197

QUERY: Please report the recorded koff for Nanobody 32C9 (VHH, Tested as periplasmic extract; also called 32C9 WT; IL6R04) VHH: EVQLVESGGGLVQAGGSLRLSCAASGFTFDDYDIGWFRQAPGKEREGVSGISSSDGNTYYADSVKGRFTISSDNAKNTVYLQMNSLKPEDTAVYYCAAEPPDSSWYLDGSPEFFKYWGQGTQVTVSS .
RESULT: 0.000162
